Source of measurements: patent US8420675B2

Target: human CRTH2 (Homo sapiens, UniProt Q9Y5Y4)
Sequence (Q9Y5Y4 whole entry): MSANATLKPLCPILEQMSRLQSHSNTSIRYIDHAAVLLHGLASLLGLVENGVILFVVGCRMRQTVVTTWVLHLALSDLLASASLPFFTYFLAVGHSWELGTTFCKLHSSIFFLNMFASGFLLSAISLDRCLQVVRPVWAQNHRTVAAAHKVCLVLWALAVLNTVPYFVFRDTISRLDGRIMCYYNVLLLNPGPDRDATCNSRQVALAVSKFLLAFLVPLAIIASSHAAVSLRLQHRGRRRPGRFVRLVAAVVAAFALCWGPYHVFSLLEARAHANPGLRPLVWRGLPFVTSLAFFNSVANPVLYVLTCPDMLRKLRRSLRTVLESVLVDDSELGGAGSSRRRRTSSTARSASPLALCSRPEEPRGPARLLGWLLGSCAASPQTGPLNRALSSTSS
Assay: Human CRTH2 Receptor Binding Assay (whole cell, [3H]ramatroban competition)
Conditions: CHO-K1 cells expressing human CRTH2 and G-alpha16; 20 nM [3H]ramatroban; 1 hour, room temperature
# reported log10 IC50; entries follow
Values reflect log10 of reported IC50 (nM).

molecule: CN([C@@H]1CCCc2c1cnn2CC(=O)O)S(=O)(=O)c1cnc(Oc2ccc(F)cc2F)c(Br)c1
log10 IC50: 0.79

molecule: O=C(O)Cn1ncc2c1CCCC2NS(=O)(=O)c1cccc(NS(=O)(=O)c2ccccc2)c1 (stereo not shown)
log10 IC50: 2.56

molecule: Cc1ccc(Oc2ncc(S(=O)(=O)NC3CCCc4c3cnn4CC(=O)O)cc2Br)cc1 (stereo not shown)
log10 IC50: 1.42

query: Reported log10 IC50, molecule O=C(O)CCn1ncc2c1CCCC2NS(=O)(=O)c1ccc(-c2ccccc2)cc1 (stereo not shown) [Example 1-6a] : ____
result: 2.68

query: Reported log10 IC50, molecule COc1ccc(Oc2ccc(S(=O)(=O)N(C)[C@@H]3CCCc4c3cnn4CC(=O)O)cc2Cl)cc1 [Example 9-31a] : ____
result: 0.83

query: Reported log10 IC50, molecule O=C(O)CCn1ncc2c1CCCC2NS(=O)(=O)c1ccc(-c2ccccc2)cc1 (single isomer, unassigned) [Example 10-30a] : ____
result: 0.75

query: Reported log10 IC50, molecule CN([C@@H]1CCCc2c1cnn2CC(=O)O)S(=O)(=O)c1ccc(Oc2ccc(S(C)(=O)=O)cc2)c(Cl)c1 [Example 9-25a] : ____
result: 1.32

###

Target: human CRTH2 (Homo sapiens)
Assay: Human CRTH2 Receptor Binding Assay (whole cell, [3H]ramatroban competition)
Settings: CHO-K1 cells expressing human CRTH2 and G-alpha16; 20 nM [3H]ramatroban; 1 hour, room temperature
Response field class: enum, chosen by comparing IC50 against lower segment = under 8 nM, middle segment = from 8 nM up to 200 nM, upper segment = 200 nM and over

Reference set (5 entries):
molecule: CN([C@@H]1CCCc2c1cnn2CC(=O)O)S(=O)(=O)c1ccc(Oc2cccc(Cl)c2)c(Cl)c1
label-class: middle segment

molecule: N#Cc1cccc(-c2ccc(S(=O)(=O)NC3CCCc4c3cnn4CC(=O)O)cc2)c1 (stereo not drawn) [Example 10-11a]
label-class: upper segment

molecule: CC(C)c1cc(S(=O)(=O)N(C)[C@@H]2CCCc3c2cnn3CC(=O)O)cnc1Oc1ccc(Cl)cc1
label-class: middle segment

molecule: CN([C@@H]1CCCc2c1cnn2CC(=O)O)S(=O)(=O)c1ccc(Oc2ccccc2Cl)c(Cl)c1
label-class: lower segment

molecule: CN([C@@H]1CCCc2c1cnn2CC(=O)O)S(=O)(=O)c1ccc(Oc2ccc(F)cc2)c(Cl)c1 [Example 9-14a]
label-class: lower segment

query: Class for CN([C@@H]1CCCc2c1cnn2CC(=O)O)S(=O)(=O)c1cc(C(F)(F)F)cc(S(=O)(=O)c2ccc(Cl)cc2)c1 ?
result: lower segment

query: Class for Cc1cc(S(=O)(=O)NC2CCCc3c2cnn3CC(=O)O)cnc1Oc1ccc(Cl)cc1 (stereo not drawn) ?
result: middle segment

query: Class for CN([C@@H]1CCCc2c1cnn2CC(=O)O)S(=O)(=O)c1ccc(Oc2c(F)cccc2F)c(Cl)c1 [Example 9-33a] ?
result: middle segment

query: Class for COc1ccc(-c2ccc(S(=O)(=O)NC3CCCc4c3cnn4CC(=O)O)cc2)cc1 (stereo not drawn) ?
result: upper segment

query: Class for CC(=O)c1cccc(-c2ccc(S(=O)(=O)NC3CCCc4c3cnn4CC(=O)O)cc2)c1 (stereo not drawn) [Example 10-22a] ?
result: middle segment

query: Class for Cc1cc(C)cc(-c2ccc(S(=O)(=O)NC3CCCc4c3cnn4CC(=O)O)cc2)c1 (stereo not drawn) [Example 10-18a] ?
result: middle segment

query: Class for COc1ccc(S(=O)(=O)c2cc(C(F)(F)F)cc(S(=O)(=O)N(C)[C@@H]3CCCc4c3cnn4CCC(=O)O)c2)cc1 ?
result: lower segment
